target: rNTS2 receptor (Rattus norvegicus); assay: 125I-NT competitive binding assay, whole CHO-kl cells over-expressing rNTS2; conditions: competition with 125I-NT; ± SEM; read-out: 125I-NT Binding NTS2 Ki
READOUT_TYPE: pKi
Give bare numbers, as −log10 of the molar value.

Hi! Can you tell me pKi for each of these compounds?
1. COc1cccc(OC)c1-c1cc(C(=O)NC2(C(=O)O)CCCCC2)nn1-c1ccc(F)cc1 [29b]
2. COc1cccc(OC)c1-c1cc(C(=O)NC2(C(=O)O)C3CC4CC(C3)CC2C4)nn1-c1ccc(F)cc1 (centres unmarked)
3. COc1cccc(OC)c1-c1cc(C(=O)NC2(C(=O)O)CCCCCC2)nn1-c1ccnc2cc(Cl)ccc12 [20b]
4. COc1cccc(OC)c1-c1cc(C(=O)N[C@H](C(=O)O)C2CCCCC2)nn1-c1cccc2ccccc12 [24b]
5. COc1ccccc1-c1cc(C(=O)N[C@H](C(=O)O)C2CCCCC2)nn1-c1ccnc2cc(Cl)ccc12 [17b]

Solution:
6.85
6.96
6.77
6.27
5.85

* * *

Give EC50 for every item shown.
biological target: rNTS2 receptor (Rattus norvegicus, UniProt Q63384); construct: expressed in transfected cells; assay: Calcium mobilization assay for NTS2 receptor (FLIPR Tetra); format: cell-based; conditions: FLIPR assay, compound induced calcium release, CHO-kl-rNTS2 cells; ± SEM
Sequence (Q63384 whole entry): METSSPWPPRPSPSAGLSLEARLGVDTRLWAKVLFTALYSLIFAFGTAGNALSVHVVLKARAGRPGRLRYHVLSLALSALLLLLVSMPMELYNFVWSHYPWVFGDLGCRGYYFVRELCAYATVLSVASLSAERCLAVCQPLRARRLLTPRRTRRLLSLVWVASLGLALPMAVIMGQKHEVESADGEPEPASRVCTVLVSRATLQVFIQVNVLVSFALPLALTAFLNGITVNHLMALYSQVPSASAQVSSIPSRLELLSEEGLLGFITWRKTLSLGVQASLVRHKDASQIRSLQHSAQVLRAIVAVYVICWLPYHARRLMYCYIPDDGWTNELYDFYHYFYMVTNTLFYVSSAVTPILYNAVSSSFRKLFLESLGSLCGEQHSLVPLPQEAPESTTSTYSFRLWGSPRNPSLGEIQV
One number for each entry, in nM.

[
  {
    "COMPOUND": "COc1cccc(OC)c1-c1cc(C(=O)NC2(C(=O)O)C3CC4CC(C3)CC2C4)nn1-c1ccc(C(=O)N(C)CCCN(C)C)cc1C(C)C (stereo not shown) [5b, reference compound]",
    "UNITS_LABEL": "nM",
    "EC50": 20
  }
]

Would you mind giving EC50 for every compound in the list below?
1. O=C(N[C@H](C(=O)O)C1CCCCC1)c1cc(-c2c(F)cccc2F)n(-c2ccnc3cc(Cl)ccc23)n1 [18b]
2. COc1ccccc1-c1cc(C(=O)NC2(C(=O)O)CCCCC2)nn1-c1cccc2ccccc12 [27b]
3. COc1cccc(OC)c1-c1cc(C(=O)NC2(C(=O)O)C3CC4CC(C3)CC2C4)nn1-c1ccc(F)cc1 (stereo not shown)

Solution:
1: 166; 2: 108; 3: 68

* * *

target: rNTS2 receptor (Rattus norvegicus, UniProt Q63384); test: Calcium mobilization assay for NTS2 receptor (FLIPR Tetra); settings: FLIPR assay, compound induced calcium release, CHO-kl-rNTS2 cells; ± SEM
Would you mind telling me the reported pEC50 of each entry?
Numbers only, as −log10 of the molar value.

[
  {
    "COMPOUND": "COc1cccc(OC)c1-c1cc(C(=O)NC2(C(=O)O)CCCCC2)nn1-c1ccc(F)cc1 [29b]",
    "pEC50": 7.72
  },
  {
    "COMPOUND": "COc1cccc(OC)c1-c1cc(C(=O)NC2(C(=O)O)CCCC2)nn1-c1ccnc2cc(Cl)ccc12 [22b]",
    "pEC50": 7.70
  },
  {
    "COMPOUND": "C[C@@H]1CN([C@H]2CC[C@](C#N)(c3ccc(F)cc3)CC2)CC[C@]1(C(=O)O)c1ccccc1 [compound 6, Levocabastine, reference compound]",
    "pEC50": 7.55
  },
  {
    "COMPOUND": "COc1ccccc1-c1cc(C(=O)NC2(C(=O)O)C3CC4CC(C3)CC2C4)nn1-c1ccc(F)cc1 (stereo not shown) [compound 31]",
    "pEC50": 6.86
  },
  {
    "COMPOUND": "COc1cccc(OC)c1-c1cc(C(=O)NC2(C(=O)O)CCCCC2)nn1-c1cccc2ccccc12 [26b]",
    "pEC50": 7.74
  },
  {
    "COMPOUND": "COc1cccc(OC)c1-c1cc(C(=O)NC2(C(=O)O)CCCCCC2)nn1-c1ccnc2cc(Cl)ccc12 [20b]",
    "pEC50": 7.68
  },
  {
    "COMPOUND": "COc1ccc(-c2cc(C(=O)N[C@H](C(=O)O)C3CCCCC3)nn2-c2ccnc3cc(Cl)ccc23)c(OC)c1 [16b]",
    "pEC50": 6.42
  },
  {
    "COMPOUND": "COc1ccccc1-c1cc(C(=O)NC2(C(=O)O)CCCCC2)nn1-c1ccnc2cc(Cl)ccc12 [23b]",
    "pEC50": 7.21
  }
]

Dear colleague, could you please provide pEC50 for the compounds listed below?
1. COc1ccc(OC)c(-c2cc(C(=O)N[C@H](C(=O)O)C3CCCCC3)nn2-c2ccnc3cc(Cl)ccc23)c1 [15b]
2. COc1cccc(OC)c1-c1cc(C(=O)N[C@H](C(=O)O)C2CCCCC2)nn1-c1ccnc2cc(Cl)ccc12 [14b]
3. COc1ccccc1-c1cc(C(=O)N[C@H](C(=O)O)C2CCCCC2)nn1-c1cccc2ccccc12 [25b]
4. COc1cccc(OC)c1-c1cc(C(=O)N[C@H](C(=O)O)C2CCCCC2)nn1-c1cccc2ccccc12 [24b]

Solution:
[6.67, 6.66, 6.64, 6.80]

// for each compound below, give its pEC50
1. COc1ccccc1-c1cc(C(=O)NC2(C(=O)O)CCCCC2)nn1-c1ccc(F)cc1 [7b]
2. COc1cccc(OC)c1-c1cc(C(=O)N[C@H](C(=O)O)C2CCCCC2)nn1-c1ccc(F)cc1 [28b]
3. COc1ccccc1-c1cc(C(=O)N[C@H](C(=O)O)C2CCCCC2)nn1-c1ccnc2cc(Cl)ccc12 [17b]

Solution:
7.92
6.57
6.59

Problem: Requested field: pEC50. Item: COc1cccc(OC)c1-c1cc(C(=O)NC2(C(=O)O)CCCCC2)nn1-c1ccnc2cc(Cl)ccc12 [21b]
Solution: 7.54
